Tested System: T1, biotinylated PD1-ECD-AviHis (human, UniProt Q15116 25-170, biotinylated, site not stated)
T1 construct: also called huPD1; hu PD1
Experimental Details: ELISA on coated biotinylated PD1-ECD-AviHis
EC50 reference
The reply should contain only the number, in µg/mL.

The cases that follow already have their EC50 on record.
[
  {
    "Binder": "PD1-0098 (antibody, V domains shown) VH: DVQLQESGPGLVKPSQSLSLTCTVTGYSITSDYAWNWIRQFPGDKLEWLGYITYSGFTNYNPSLKSRISISRDTSKNQFFLQLNSVATEDTATYYCARWHGSAPWYFDYWGRGTTLTVSS VL: DVLMTQTPLSLPVSLGDQASISCRSSQNIVHSDGNTYLEWYLQKPGQSPNLLIYKVSRRFSGVPDRFSGSGSGTDFTLKISRVEAEDLGVYYCFQGSHFPLTFGAGTKLELK",
    "Reported Value": 0.0508
  },
  {
    "Binder": "PD1-0050 (antibody, V domains shown) VH: DVQLQESGPGLVKPSQSLSLTCTVTGYSITSDYAWNWIRQFPGNKLEWMGYITYTGRTSYNPSLKSRISITRDTSKNQFFLQLNSVTTEDTATYYCAREMDYYGSTLDYWGQGTTLTVSS VL: KIVLTQSPASLAVSLRQRATISCRASESVDRYGNSFIHWYQQKPGQPPKVLIYRASNLESGFPARFSGSGSRTDFTLTIDPVEADDAATYYCQQNNEDPYTFGSGTKLEIK",
    "Reported Value": 0.0179
  },
  {
    "Binder": "PD1-0073 (antibody, V domains shown) VH: EVKLVESGGGLVKPGGSLKLSCAASGFTFSNYGMSWIRQTPEKGLEWVATISGGGRDTYYPDSVKGRFTISRDNVKNNLYLQMSSLRSEDTAFYYCASYYYGIDYWGQGTSVTVSS VL: DIVMTQPHKFMSTSVGDRVRITCKASQDVTTAVAWYQQKPGQSPKLLIYWASTRHTGVPDRFTGSGSGTEFTLTISSVQAEDLALYYCQQHYSIPWTFGGGTKLEIK",
    "Reported Value": 0.0151
  },
  {
    "Binder": "PD1-0078 (antibody, V domains shown) VH: QVQLQQPGAELVKPGASVKMSCKASGYTFTSTWMHWVKQRPGQGLEWIGAIDPSDSYTTYNQKFKGKATLTVDTSSTTAYMQLSSLTSEDSAVYYCTRSPFDYWGQGTTLTVSS VL: DIVMTQSHKFMSTSVGDRVSITCKASQDVSTAVAWYQQKPGQSPKLLIYSASYRYTGVPDRFTGSGSGTDFTFAISSVQAEDLAVYYCQQHYSHPFTFGSGTKLEIK",
    "Reported Value": 0.0263
  },
  {
    "Binder": "PD1-0103 (antibody, V domains shown, Mouse monoclonal antibody) VH: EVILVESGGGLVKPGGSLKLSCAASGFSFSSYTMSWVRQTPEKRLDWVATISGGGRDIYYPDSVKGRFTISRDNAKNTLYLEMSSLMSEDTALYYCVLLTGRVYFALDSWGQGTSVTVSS VL: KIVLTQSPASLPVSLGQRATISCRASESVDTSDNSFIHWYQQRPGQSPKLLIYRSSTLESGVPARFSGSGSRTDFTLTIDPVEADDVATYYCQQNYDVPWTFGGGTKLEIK",
    "Reported Value": 0.0337
  },
  {
    "Binder": "PD1-0102 (antibody, V domains shown) VH: DVQLQESGPDLVKPSQSLSLTCTVTGYSITSGYSWHWIRQFPGNKLEWMGFIHSSGDTNYNPSLKSRISFTRDTSKNQFFLQLSSLTDEDTATYYCATYRNWYFDVWGAGTTVTVSS VL: DIVMTQSPSSLTVTAGEKVTMRCKSSQSLLNSGTQKNYLTWYQQKPGQPPKLLIYWASTRESGVPNRFTGSGSGTDFTLTISSVQAEDLSVYYCQSDYTFPLTFGGGTKLELK",
    "Reported Value": 0.0342
  }
]

Lab note: measured EC50 of PD1-0069 (antibody, V domains shown) VH: QVQLQQSGPELVRPGVSVKISCKGSGYTFTDYAMHWVKQSHARTLEWIGVISTYSGDTNYNQKFKDKATMTVDKSSSTAYLELARMTSEDSAIYYCARLGITTGFAYWGQGTLVTVSA VL: DIVLTQSPASLAVSLGQRATISCRASKGVSTSSYSFMHWYQQKPRQPPKLLIKYASYLESGVPARFSGSGSGTDFTLNIHPVEEEDAATYYCHHSREFPWTFGGGTKLEIK was 0.0457

Ref: patent US20190322748A1
